biological target: human Tissue Factor on MDA-MB-231 cells (human, UniProt P13726 33-295); assay: cell-based or functional assay
quantity: % IL8, 6.4 nM Ab (%)
Entry rule: numbers only, all in %.

// returns reported % IL8, 6.4 nM Ab for input 25G (antibody, human IgG1, kappa, V domains shown, Human anti-TF IgG1) VH: QVQLVQSGAEVKKPGASVKVSCKASGYTFRSYGISWVRQAPGQGLEWMGWVAPYNGNTNYAQKLQGRVTMTTDTSTSTAYMELRSLRSDDTAVYYCARDAGTYSPYGYGMDVWGQGTTVTVSS VL: DIQMTQSPSTLSASVGDRVTITCRASQSISSWLAWYQQKPGKAPKLLIYKASSLESGVPSRFSGSGSGTEFTLTISSLQPDDFATYYCQQFQSLPPFTFGGGTKVEIKR
22

// returns reported % IL8, 6.4 nM Ab for input 54E (antibody, V domains shown, Human anti-TF IgG1) VH: QVQLVQSGAEVKKPGASVKVSCKASGYTFANYYMHWVRQAPGQGLEWMGIINPSGGITVYAQKFQGRVTMTRDTSTSTVYMELSSLRSEDTAVYYCARGGSKVAALAFDIWGQGTMVTVSS VL: DIQMTQSPSSLSASVGDRVTITCQASQDISNSLNWYQQKPGKAPKLLIYDASNLETGVPSRFSGSRSGTDFTFTISSLQPEDIATYYCQQYNFHPLTFGGGTKVEIK
8

// returns reported % IL8, 6.4 nM Ab for input 39A (antibody, V domains shown, Human anti-TF IgG1) VH: QVQLVQSGAEVKKPGSSVKVSCKASGGTFSSNAIGWVRQAPGQGLEWMGSIIPIIGFANYAQKFQGRVTITADESTSTAYMELSSLRSEDTAVYYCARDSGYYYGASSFGMDVWGQGTTVTVSS VL: EIVMTQSPATLSVSPGERATLSCRASQSVSSNLAWYQQKPGQAPRLLIYGASTRATGIPARFSGSGSGTEFTLTISSLQSEDFAVYYCEQYNNLPLTFGGGTKVEIK
6
